These data points were gathered from paper PMC11995216.

- experimental.protocol: PAMPA, permeability assay across an artificial membrane
- recorded.conditions: PAMPA, Papp, Ave, ELSD detection, C0 500 uM
Here the recorded Papp at 500 uM is given for each entry.
quantity: Papp at 500 uM (×10⁻⁶ cm/s)

compound | result.units | recorded.number
CCCCC[C@@H]1OC(=O)[C@@H](C)N(C)C(=O)[C@H](CCCCC)OC(=O)[C@@H](C)N(C)C(=O)[C@H](CCCCC)OC(=O)[C@@H](C)N(C)C(=O)[C@H](CCCCC)OC(=O)[C@@H](C)N(C)C(=O)[C@H](CCCCC)OC(=O)[C@@H](C)N(C)C(=O)[C@H](CCCCC)OC(=O)[C@@H](C)N(C)C1=O | ×10⁻⁶ cm/s | 1.9
CCCCC[C@@H]1OC(=O)[C@@H](C)N(C)C(=O)[C@H](CCCCC)OC(=O)[C@@H](C)N(C)C(=O)[C@H](CCCCC)OC(=O)[C@@H](C)N(C)C1=O [Compound C1.3, ent-verticilide B1] | ×10⁻⁶ cm/s | 4.24
CCCCC[C@@H]1OC(=O)[C@@H](C)N(C)C(=O)[C@H](CCCCC)OC(=O)[C@@H](C)N(C)C(=O)[C@H](CCCCC)OC(=O)[C@@H](C)N(C)C(=O)[C@H](CCCCC)OC(=O)[C@@H](C)N(C)C1=O [Compound C1.4, ent-verticilide] | ×10⁻⁶ cm/s | 5.69

###

Here the recorded Acceptor Concentration is given for each entry.
- Tested on: PAMPA
- recorded.conditions: Acceptor Concentration (uM) / experiment 2; UV detection; initial concentration 500 uM

cpd.smiles | result.units | Acceptor Concentration
CCCCC[C@H](OC(=O)[C@@H](C)N(C)C(=O)OC(C)(C)C)C(=O)OCc1ccccc1 | µM | 95.4
CCCCC[C@H](OC(=O)[C@@H](C)N(C)C(=O)[C@H](CCCCC)OC(=O)[C@@H](C)N(C)C(=O)[C@H](CCCCC)OC(=O)[C@@H](C)N(C)C(=O)[C@H](CCCCC)OC(=O)[C@@H](C)N(C)C(=O)[C@H](CCCCC)OC(=O)[C@@H](C)N(C)C(=O)OC(C)(C)C)C(=O)OCc1ccccc1 | µM | 38.4
CCCCC[C@H](OC(=O)[C@@H](C)N(C)C(=O)[C@H](CCCCC)OC(=O)[C@@H](C)N(C)C(=O)[C@H](CCCCC)OC(=O)[C@@H](C)N(C)C(=O)OC(C)(C)C)C(=O)OCc1ccccc1 | µM | 80.7
CCCCC[C@H](OC(=O)[C@@H](C)N(C)C(=O)[C@H](CCCCC)OC(=O)[C@@H](C)N(C)C(=O)[C@H](CCCCC)OC(=O)[C@@H](C)N(C)C(=O)[C@H](CCCCC)OC(=O)[C@@H](C)N(C)C(=O)OC(C)(C)C)C(=O)OCc1ccccc1 | µM | 57.9
CCCCC[C@H](OC(=O)[C@@H](C)N(C)C(=O)[C@H](CCCCC)OC(=O)[C@@H](C)N(C)C(=O)OC(C)(C)C)C(=O)OCc1ccccc1 | µM | 80.6

###

- System: PAMPA
- recorded.conditions: Acceptor Concentration (uM) / experiment 7; UV detection; initial concentration 500 uM

compound | Acceptor Concentration / µM
CCCCC[C@H](OC(=O)[C@@H](C)N(C)C(=O)[C@H](CCCCC)OC(=O)[C@@H](C)N(C)C(=O)[C@H](CCCCC)OC(=O)[C@@H](C)N(C)C(=O)OC(C)(C)C)C(=O)OCc1ccccc1 [Compound L1.3] | 84
CCCCC[C@H](OC(=O)[C@@H](C)N(C)C(=O)[C@H](CCCCC)OC(=O)[C@@H](C)N(C)C(=O)[C@H](CCCCC)OC(=O)[C@@H](C)N(C)C(=O)[C@H](CCCCC)OC(=O)[C@@H](C)N(C)C(=O)[C@H](CCCCC)OC(=O)[C@@H](C)N(C)C(=O)OC(C)(C)C)C(=O)OCc1ccccc1 [Compound L1.5] | 40.3
CCCCC[C@H](OC(=O)[C@@H](C)N(C)C(=O)[C@H](CCCCC)OC(=O)[C@@H](C)N(C)C(=O)OC(C)(C)C)C(=O)OCc1ccccc1 [Compound L1.2] | 86.9
CCCCC[C@H](OC(=O)[C@@H](C)N(C)C(=O)[C@H](CCCCC)OC(=O)[C@@H](C)N(C)C(=O)[C@H](CCCCC)OC(=O)[C@@H](C)N(C)C(=O)[C@H](CCCCC)OC(=O)[C@@H](C)N(C)C(=O)OC(C)(C)C)C(=O)OCc1ccccc1 [Compound L1.4] | 51.5
